Overview of recorded melting point for various compounds

## Task Query: melting point; subject: `O=C1[C@H](CC[C@H](O)c2ccc(F)cc2)[C@@H](c2ccc(C[C@@H]3O[C@H](CO)[C@@H](O)[C@H](O)[C@H]3O)cc2)N1c1ccccc1`
## Result 104 to 106 °C

###

Reported values of melting point for individual entries

Previously resolved entries follow.
CC(=O)OC[C@H]1O[C@@H](Cc2ccc([C@@H]3[C@@H](CCCc4ccc(F)cc4)C(=O)N3c3ccc(C)cc3)cc2)[C@H](OC(C)=O)[C@@H](OC(C)=O)[C@@H]1OC(C)=O (relative stereo)	56 to 58 °C
O=C1[C@H](CC[C@H](O)c2ccc(F)cc2)[C@@H](c2ccc(CCC[C@@H]3O[C@H](CO)[C@@H](O)[C@H](O)[C@H]3O)cc2)N1c1ccc(F)cc1	81 to 83 °C
O=C1[C@H](CC[C@H](O)c2ccc(C3OC(CO)C(O)C(O)C3O)cc2)C(c2ccc(F)cc2)N1c1ccc(F)cc1 (stereo in doubt)	111 to 113 °C
O=C1[C@H](CC[C@H](O)c2ccccc2)[C@@H](c2ccc(C[C@@H]3O[C@H](CO)[C@@H](O)[C@H](O)[C@H]3O)cc2)N1c1ccccc1	110 to 112 °C
O=C(O)c1ccc(N2C(=O)[C@H](CCC(=O)c3ccc(F)cc3)[C@H]2c2ccc(C[C@@H]3O[C@H](CO)[C@@H](O)[C@H](O)[C@H]3O)cc2)cc1	102 to 104 °C
CC(=O)OC[C@H]1O[C@@H](Cc2ccc([C@@H]3[C@@H](CCCc4ccc(F)cc4)C(=O)N3c3ccccc3)cc2)[C@H](OC(C)=O)[C@@H](OC(C)=O)[C@@H]1OC(C)=O (relative stereo)	60 to 61 °C

## Task For `Cc1ccc(N2C(=O)[C@H](CCC(=O)c3ccc(F)cc3)[C@H]2c2ccc(C[C@@H]3O[C@H](CO)[C@@H](O)[C@H](O)[C@H]3O)cc2)cc1` , what is its reported melting point?
## Result 86 to 88 °C

## Task Query `CCOC(=O)c1ccc(N2C(=O)[C@H](CC[C@H](O)c3ccc(F)cc3)[C@H]2c2ccc(C[C@@H]3O[C@H](CO)[C@@H](O)[C@H](O)[C@H]3O)cc2)cc1` next
## Result 56 to 58 °C

###

Collected melting point values appear next to each entry.

O=C(CC[C@H]1C(=O)N(c2ccc(F)cc2)[C@@H]1c1ccc(C[C@@H]2O[C@H](CO)[C@@H](O)[C@H](O)[C@H]2O)cc1)c1ccc(F)cc1	78 to 80 °C
O=C1[C@H](CCCc2ccccc2)[C@@H](c2ccc(C[C@@H]3O[C@H](CO)[C@@H](O)[C@H](O)[C@H]3O)cc2)N1c1ccccc1	84 to 86 °C
O=C1[C@H](CC[C@H](O)c2ccc(F)cc2)[C@@H](c2ccc(CCCOC[C@@H]3O[C@H](CO)[C@@H](O)[C@H](O)[C@H]3O)cc2)N1c1ccc(F)cc1	61 to 63 °C
O=C1[C@H](CC[C@H](O)c2ccc(F)cc2)[C@@H](c2ccc(C[C@@H]3O[C@H](CO)[C@@H](O)[C@H](O)[C@H]3O)cc2)N1c1ccc(F)cc1	115 to 117 °C
O=C1[C@H](CCOc2ccc(F)cc2)[C@@H](c2ccc(CC3O[C@H](CO)[C@@H](O)[C@H](O)[C@H]3O)cc2)N1c1ccc(F)cc1 (relative stereo)	65 to 67 °C

Here's the next entry for you.
## Task Which melting point value is on record for `O=C1[C@H](CC[C@H](O)c2ccc(F)cc2)[C@@H](c2ccc(/C=C/[C@@H]3O[C@H](CO)[C@@H](O)[C@H](O)[C@H]3O)cc2)N1c1ccc(F)cc1` ?
## Result 84 to 86 °C

###

# key: entry, value: melting point

O=C1[C@H](CC[C@H](O)c2ccc(F)cc2)[C@@H](c2ccc([C@@H]3O[C@H](CO)[C@@H](O)[C@H](O)[C@H]3O)cc2)N1c1ccc(F)cc1 [Compound 35]	81 to 83 °C
O=C1[C@H](CCCc2ccc(F)cc2)[C@@H](c2ccc(CC3O[C@H](CO)[C@@H](O)[C@H](O)[C@H]3O)cc2)N1c1ccc(F)cc1 (stereo in doubt) [Compound 25]	67 to 69 °C
O=C1[C@H](CCCc2ccc(F)cc2)[C@@H](c2ccc(C[C@@H]3O[C@H](CO)[C@@H](O)[C@H](O)[C@H]3O)cc2)N1c1ccc(F)cc1 (relative stereo) [Compound 2]	110 to 112 °C

# next compound below
## Task Consider the compound shown here: CCOC(=O)C(C)(C)Oc1ccc(N2C(=O)[C@H](CCCc3ccc(C)cc3)[C@H]2c2ccc(C[C@@H]3O[C@H](CO)[C@@H](O)[C@H](O)[C@H]3O)cc2)cc1 (relative stereo) [Compound 20] What is its recorded melting point?
## Result 76 to 78 °C
